Assay: chemical genetic growth profiling, strain panel (AID 1159580);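 further: tested at 20 µM; growth read once vehicle control cultures reached saturation at 30 °C; 1 = growth at the plate median or of vehicle wells; lower values mean less growth of the strain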
Conditions: S. cerevisiae deletion strains, growth OD, locus YMR307W, strain GAS1, stronger effect = lower value
Hit rate of the full screen: of about 5,500 compounds, about 2,000 (36%) were called active. Inconclusive results (about 18%) are left out. This is one part of the list.
readout-type: normalized growth

C[C@]12CCC3C(CC[C@H]4C[C@H](O)CC[C@]34C)C1CC[C@@H]2C(=O)CO (some centres undefined)	0.939
COc1cc2c(cc1OC)C1(O)C(=O)c3ccc(O)c(C(=O)O)c3OC1CO2 (centres undefined)	1.18
C[C@]12CCC3C(CC[C@H]4C[C@H](O)CC[C@]34C)C1CC[C@@H]2O (some centres undefined)	0.798
COC(=O)[C@@H]1OC(=O)C2OC23[C@@]1(C)CCC1[C@]2(C)C(C[C@@H](O)[C@]13C)C(C)(C)[C@H](OC(C)=O)C[C@@H]2OC(C)=O (some centres undefined)	0.996
CC12CCC3C(CC[C@H]4CC5(CCC34C)OCCO5)C1CCC2O (some centres undefined)	1.05
Nc1ncnc(SCc2ccc(Cl)cc2)n1	0.995
Cc1cccc(C)c1NC(=O)C1CCCCN1C (centres undefined)	0.985
CC(=O)C1CC[C@H]2C3CC[C@H]4C[C@H](O)CC[C@]4(C)C3CC[C@]12C (some centres undefined)	1.11
C[C@]12CCC3C(CC[C@H]4C[C@@H](O)CC[C@]34C)C1CC[C@@H]2O (some centres undefined)	1.02
COC1=CC(=O)OC(CCc2ccc(OC)c(OC)c2)C1 (centres undefined)	1.03
CC(=O)[C@H]1CCC2C3CC[C@H]4C[C@H](O)CC[C@]4(C)C3CC[C@@]21C (some centres undefined)	0.935
C=C[C@@]1(C)CC(=O)[C@@]2(O)[C@](C)(O1)[C@@H](OC(C)=O)[C@@H](O)C1C(C)(C)CC[C@H](O)[C@@]12C (some centres undefined)	1
CCCn1c(=O)c2[nH]c(C3CCCC3)nc2n(CCC)c1=O	0.947
O=c1[nH]c(=O)n(C2C[C@H](O)[C@@H](CO)O2)cc1C(F)(F)F (some centres undefined)	0.978
CC(=O)C1CCC2C3CCC4C[C@H](O)CCC4(C)C3C[C@H](O)C12C (some centres undefined)	1.34
C[C@]12CC[C@H]3[C@@H](CCC4C[C@H](O)CC[C@@]43C)[C@@H]1CC[C@@H]2O (some centres undefined)	0.977
COc1ccc(CCC(=O)c2c(O)cc(O[C@@H]3O[C@H](CO)C(O)[C@H](O)C3O[C@@H]3O[C@@H](C)[C@H](O)[C@@H](O)[C@H]3O)cc2O)cc1O (some centres undefined)	1.04
CCOC(=O)CNc1ccc(Cl)c(Cl)c1	0.986
COc1ccccc1N1CCN(CCN2C(=O)CC3(CCCC3)CC2=O)CC1	0.989

----------
Test: chemical genetic growth profiling, strain panel (AID 1159580);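 further: tested at 20 µM; growth read once vehicle control cultures reached saturation at 30 °C; 1 = growth at the plate median or of vehicle wells; lower values mean less growth of the strain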
Details: S. cerevisiae deletion strains, growth OD, locus YNL183C, strain NPR1
Hit rate of the full screen: of about 5,500 compounds, about 2,000 (36%) were called active. Inconclusive results (about 18%) are left out. Rule as the data show it: active = normalized growth mostly below about 0.91 (no sharp cut-off); inconclusive = no clear call, values can overlap the other calls; inactive = mostly above about 0.92. The list shows a part of the results.
Outcomes: active, inactive

c1cncc(C2=NCCC2)c1	inactive
CN(C)C(=O)Oc1ccc[n+](C)c1	inactive
N#CC(C#N)=Cc1c(-c2ccccc2Cl)[nH]c2ccccc12	inactive
Clc1ccccc1-c1csc(-c2cccnc2)n1	inactive
COc1cc(OC)c2c(=O)cc(-c3ccccc3)oc2c1	inactive
O=C(O)CCC1NCC2CC1CN1CCCCC21 (stereo not given)	inactive
COC[C@]12CN(C=O)C3[C@@H]4[C@H](OC)C1[C@]3(C1CC3(O)C(OC)C(O)C4(OC(C)=O)C1C3OC(=O)c1ccccc1)[C@@H](OC)C[C@H]2O (stereo not given in full)	inactive
C[C@H]1C[C@@H](O)[C@]2(O)[C@@]13CC(=O)OC[C@@]2(C)[C@](C)(O)C(=O)C3	inactive
Brc1ccc(-c2csc(-c3cccnc3)n2)cc1	active
CC(C)/C(O)=C1/C(=O)O[C@@H](c2ccoc2)[C@]2(C)C(O)[C@@H](O)[C@@]34OC5(C)OC67CC(C)(C(O)[C@]6(O)[C@@H](O)[C@]3(O5)C12)[C@H](CC(=O)O)[C@]74C (stereo not given in full)	inactive

----------
Assay: chemical genetic growth profiling, strain panel (AID 1159580);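 further: tested at 20 µM; growth read once vehicle control cultures reached saturation at 30 °C; 1 = growth at the plate median or of vehicle wells; lower values mean less growth of the strain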
Conditions: S. cerevisiae deletion strains, growth OD, locus YGR229C, strain SMI1
About 2,000 (36%) of roughly 5,500 compounds were called active. Roughly 18% stayed inconclusive and do not appear here. Cut-off read from the data, not from the text of the source: active = normalized growth mostly below about 0.91 (no sharp cut-off); inconclusive = no clear call, values can overlap the other calls; inactive = mostly above about 0.92. Some of the results follow. Where a SMILES comes first, the peptide text is derived from it.
Outcomes: 1 (active), -1 (inactive)

O=c1cccc2n1CC1CC2CN2CCCC[C@@H]12 (some centres undefined)	-1
NC1(C(=O)O)CCC1	1
COc1cscc1C(N)=O	-1
O=C(O)COc1ccc(Cl)cc1Cl	-1
COc1ccc(CCC(=O)c2c(O)cc(O[C@@H]3O[C@H](CO)C(O)[C@H](O)C3O[C@@H]3O[C@@H](C)[C@H](O)[C@@H](O)[C@H]3O)cc2O)cc1O (some centres undefined)	-1
CC(C)c1nc(N(C)S(C)(=O)=O)nc(-c2ccc(F)cc2)c1/C=C/[C@@H](O)C[C@@H](O)CC(=O)O	-1
CC(=O)N[C@@H](CC(=O)O)C(=O)N[C@@H](CCC(=O)O)C(=O)O (Ac-Asp-Glu-OH)	-1
Cc1nn(Cc2ccccc2Cl)c(=N)s1	-1
CCCCCC(O)c1cccc(OCc2ccc3ccccc3n2)c1 (centres undefined)	-1
O=c1[nH]c(=O)n(C2C[C@H](O)[C@@H](CO)O2)cc1C(F)(F)F (some centres undefined)	-1
N/C(=N/OC(=O)Nc1ccccc1)c1ccc(C2SCCS2)cc1	-1
O=C(O)C1CCCNC1 (centres undefined)	-1
NCCCNCCSP(=O)(O)O	-1
CC(C)c1ccc2c(c1)c(SC(C)(C)C)c(CC(C)(C)C(=O)O)n2Cc1ccc(Cl)cc1	-1
C[C@@H](Oc1ccc(Oc2cnc3ccc(Cl)cc3n2)cc1)C(=O)O	-1
COC(=O)c1ccsc1N	-1
C=C[C@@]1(C)CC(=O)[C@@]2(O)[C@](C)(O1)[C@@H](OC(C)=O)[C@@H](O)C1C(C)(C)CC[C@H](O)[C@@]12C (some centres undefined)	-1
Cc1cc(CC(=O)O)n(C)c1C(=O)c1ccc(Cl)cc1	-1
NCCCCNCCCN	-1
COP(=S)(OC)Oc1ccc([N+](=O)[O-])cc1	-1
Cc1cccc(C)c1NC(=O)C1CCCCN1C (centres undefined)	-1
NC1(C(=O)O)CC1	-1
O=C1NC2(CCN(Cc3ccccc3)CC2)Oc2ccccc21	-1
COC1=CC(=O)OC(CCc2ccc(OC)c(OC)c2)C1 (centres undefined)	-1

----------
Test: chemical genetic growth profiling, strain panel (AID 1159580);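 further: tested at 20 µM; growth read once vehicle control cultures reached saturation at 30 °C; 1 = growth at the plate median or of vehicle wells; lower values mean less growth of the strain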
Settings: S. cerevisiae deletion strains, growth OD, locus YDR069C, strain doa4
Screen size: about 5,500 compounds; about 2,000 (36%) were called active. Not shown: some 18% with an inconclusive outcome. Cut-off read from the data, not from the text of the source: active = normalized growth mostly below about 0.91 (no sharp cut-off); inconclusive = no clear call, values can overlap the other calls; inactive = mostly above about 0.92. The list shows a part of the results.
Outcomes: TRUE for active, FALSE for inactive

C=C1C(=O)[C@]23[C@H](O)[C@H]1CC[C@H]2[C@@]12CO[C@]3(O)[C@H](O)[C@@H]1C(C)(C)CC[C@@H]2O	FALSE
C[C@@H]1CC2C3CCC4=CC(=O)C=C[C@]4(C)[C@@]3(F)[C@@H](O)C[C@]2(C)[C@@]1(O)C(=O)CO (stereo not given in full)	FALSE
Fc1ccc([C@@H]2CCNC[C@H]2COc2ccc3c(c2)OCO3)cc1	FALSE
CC(=O)Oc1c2c(c3c(c1CC=C(C)C)O[C@]14C(=C[C@@H]5CC1C(C)(C)OC4(C/C=C(\C)C(=O)O)C5=O)C3=O)OC(C)(CCC=C(C)C)C=C2 (stereo not given in full)	FALSE
COc1ccc2c(c1)OCC(Cc1ccc(OC)c(O)c1)C2=O (stereo not given)	FALSE
O=NN(CCCl)C(=O)NCCCl	FALSE
CC(=O)O[C@]1(C)CC[C@@]23CC1C(C)(C)[C@@H]2CC[C@H]3C	FALSE
COc1cc2c(cc1OC)C1(O)C(=O)c3ccc(O)c(C(=O)O)c3OC1CO2 (stereo not given)	FALSE
CC1CCC(NC(=O)N(CCCl)N=O)CC1 (stereo not given)	FALSE
CC1OC(O[C@H]2/C=C/C=C/C=C/C=C/C=C/C=C/C=C/[C@H](C)[C@@H](O)[C@@H](C)[C@H](C)OC(=O)CC(O)CC(O)CCC(O)C(O)CC(O)C[C@]3(O)C[C@H](O)C(C(=O)O)C(C2)O3)C(O)[C@H](N)C1O (stereo not given in full)	TRUE
COC(=O)/C(C)=C\CC12OC(C)(C)C3CC(C=C4C(=O)c5c(OC)c6c(c(CC=C(C)C)c5OC431)OC(C)(CCC=C(C)C)C=C6)C2=O (stereo not given)	FALSE
NC1(C(=O)O)CC1	FALSE
O=C(O)CCC1NCC2CC1CN1CCCCC21 (stereo not given)	FALSE
O=C(O)C(O)C(O)C(=O)O (stereo not given)	FALSE
O=c1oc2ccccc2cc1O	FALSE
CN(C)C(=O)Oc1ccc[n+](C)c1	FALSE
COc1ccc2c(c1)OCC(Cc1ccc(OC)c(OC(C)=O)c1)C2=O (stereo not given)	FALSE
NC(C(=O)O)C(O)C(=O)O (stereo not given)	FALSE
O=c1[nH]c(=O)n(C2C[C@H](O)[C@@H](CO)O2)cc1C(F)(F)F (stereo not given in full)	FALSE
COc1ccc2c(c1)OCC(Cc1ccc(O)c(OC)c1)C2=O (stereo not given)	FALSE
